Below, each entry is listed alongside its reported growth inhibition (GI).
System: Mycobacterium tuberculosis
Experiment: Antimycobacterial activity against Mycobacterium tuberculosis H37Rv assessed as growth inhibition after 6 days by resazurin MIC assay
Type: functional, organism-based
The response must be a number in % with no trailing unit.

itemsmiles=O=C(c1ccncc1)n1nc(-c2ccc(O)cc2)cc1-c1cc2ccccc2oc1=O attributemeasured="growth inhibition (GI)" observedresult=69.91
itemsmiles=O=C(c1ccncc1)n1nc(-c2cccc([N+](=O)[O-])c2)cc1-c1cc2ccccc2oc1=O attributemeasured="growth inhibition (GI)" observedresult=65.39

INPUT: In one line, give reported growth inhibition (GI) of the entry O=C(c1ccncc1)n1nc(-c2ccc(Cl)cc2Cl)cc1-c1cc2ccccc2oc1=O .
OUTPUT: 69.09

###

Test system: Mycobacterium tuberculosis
Test: Antimycobacterial activity against Mycobacterium tuberculosis H37Rv assessed as growth inhibition after 6 days by resazurin MIC assay
Format: functional, organism-based
attributeMeasured: growth inhibition (GI) (%)
The response must be a number in % with no trailing unit.

itemsmiles=COc1ccc(-c2cc(-c3cc4ccccc4oc3=O)n(C(=O)c3ccncc3)n2)cc1 experimentaltarget="Mycobacterium tuberculosis" observedresult=66.67
itemsmiles=Cc1ccc(-c2cc(-c3cc4ccccc4oc3=O)n(C(=O)c3ccncc3)n2)cc1 experimentaltarget="Mycobacterium tuberculosis" observedresult=62.63

Now for another entry.
INPUT: In one line, give reported growth inhibition (GI) of the entry O=C(c1ccncc1)n1nc(-c2ccc(Cl)cc2)cc1-c1cc2ccccc2oc1=O .
OUTPUT: 75.39
